System: Enterococcus faecium
Assay: Antibacterial activity against vancomycin-resistant Enterococcus faecium ATCC 700221 after 16 to 18 hrs by broth microdilution method
Format: functional
Threshold-based label: MIC under 3 µM gives true, MIC not under 3 µM gives false.

- CCOC(=O)c1ccc2nc3c(O)c(Br)cc(Br)c3nc2c1: true
- CS(=O)(=O)N1CCN(C(=O)Oc2c(Br)cc(Br)c3nc4ccccc4nc23)C1=O: false
- COCCOCCOCC(=O)Oc1c(Br)cc(Br)c2nc3ccccc3nc12: false
- Oc1ccc(Br)c2nc3cc(Cl)ccc3nc12: false
- CC(C)(C)c1ccc2nc3c(O)c(Br)cc(Br)c3nc2c1: true
- Cc1ccc2nc3c(Br)cc(Br)c(O)c3nc2c1C: false
- COCCOCCOCCOCCOC(=O)Oc1c(Br)cc(Br)c2nc3cc(Oc4ccccc4)ccc3nc12: true
- CCc1ccc2nc3c(O)ccc(Br)c3nc2c1: false
- Cc1ccc2nc3c(O)ccc(Br)c3nc2c1: false
- CCCc1ccc2nc3c(O)c(Br)cc(Br)c3nc2c1: false
- CCOc1ccc2nc3c(O)c(Br)cc(Br)c3nc2c1: false
- Cc1ccc2nc3c(O)c(Br)cc(Br)c3nc2c1: true

---

Test system: Staphylococcus aureus
Assay: Bactericidal activity against methicillin-resistant Staphylococcus aureus BAA-1707 planktonic cells after 24 hrs by calgary biofilm device method
Type: organism-based
Hi! Just check whether MBC is below 40 µM. Below gives criterion met, equal or above gives criterion not met.

- CC1=C(C)C(=O)C(COC(=O)OCOc2c(Br)cc(Br)c3nc4ccccc4nc23)=C(C)C1=O: criterion met
- c1ccc(CN(CCN(Cc2ccccn2)Cc2ccccn2)Cc2ccccn2)nc1: criterion not met
- COCCOCCOCCOCCOC(=O)Oc1c(Br)cc(Br)c2nc3cc(Oc4ccccc4)ccc3nc12: criterion met
- CCCCCCCCCC(=O)N[C@@H](Cc1c[nH]c2ccccc12)C(=O)N[C@H](CC(N)=O)C(=O)N[C@@H](CC(=O)O)C(=O)N[C@@H]1C(=O)NCC(=O)N[C@@H](CCCN)C(=O)N[C@@H](CC(=O)O)C(=O)N[C@H](C)C(=O)N[C@@H](CC(=O)O)C(=O)NCC(=O)N[C@H](CO)C(=O)N[C@@H]([C@H](C)CC(=O)O)C(=O)N[C@@H](CC(=O)c2ccccc2N)C(=O)O[C@@H]1C: criterion not met
- CS(=O)(=O)N1CCN(C(=O)Oc2c(Br)cc(Br)c3nc4ccccc4nc23)C1=O: criterion met
- CC1=C(C)C(=O)C(COC(=O)OCOc2c(Br)cc(Br)c3nc4cc(Cl)ccc4nc23)=C(C)C1=O: criterion met
- CCN(CC)c1ccc2nc3c(O)c(Br)cc(Br)c3nc2c1Br: criterion met
- CC(=O)NC[C@H]1CN(c2ccc(N3CCOCC3)c(F)c2)C(=O)O1: criterion met
- O=C(O)CN(CCN(CC(=O)O)CC(=O)O)CC(=O)O: criterion not met
- Cc1cc2nc3c(O)c(Br)cc(Br)c3nc2c(C)c1C: criterion not met
- CCc1ccc2nc3c(O)c(Br)cc(Br)c3nc2c1: criterion not met
- COCCOCCOCC(=O)Oc1c(Br)cc(Br)c2nc3ccccc3nc12: criterion met

---

Assay: Selectivity index, ratio of IC50 for human HeLa cells to MIC for methicillin-resistant Staphylococcus aureus BAA-1707
Format: toxicity
Conditions: read-out: Selectivity Index
assay_readout: selectivity ratio

* Cc1ccc2nc3c(O)ccc(Br)c3nc2c1 | > 8
